Reference source for all entries: ChEMBL document CHEMBL5143714

- studyTarget: UniProt:O75469
- Sequence (O75469 whole entry): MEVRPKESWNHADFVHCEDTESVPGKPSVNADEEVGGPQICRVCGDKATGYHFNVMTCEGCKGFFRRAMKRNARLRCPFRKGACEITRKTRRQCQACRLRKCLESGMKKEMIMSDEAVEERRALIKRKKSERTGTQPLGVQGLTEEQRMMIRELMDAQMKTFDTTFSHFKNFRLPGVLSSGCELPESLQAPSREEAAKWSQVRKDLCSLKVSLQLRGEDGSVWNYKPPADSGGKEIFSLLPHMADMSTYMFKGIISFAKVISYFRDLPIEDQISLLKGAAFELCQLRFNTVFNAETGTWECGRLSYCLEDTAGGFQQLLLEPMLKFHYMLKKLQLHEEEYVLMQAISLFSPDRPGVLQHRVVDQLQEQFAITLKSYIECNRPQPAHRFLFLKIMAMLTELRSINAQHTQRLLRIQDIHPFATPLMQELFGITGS
- experimentalProtocol: Transactivation of PXR (unknown origin)
endpoint: log10 of EC50 (log10 of the value in µM)
Short version: log10 scale, EC50, µM.

mol: CC(C)(O)c1ccc(-c2cccc(N(CC34CCC(c5noc(C(C)(C)F)n5)(CC3)CC4)C(=O)[C@H]3C[C@](O)(C(F)(F)F)C3)c2)cc1
studyTarget: UniProt:O75469
log10 of EC50: 1.70

Answer for every listed entry: what is its log10 of EC50? The entries follow.
1. O=C(N(CC12CCC(c3nc(C4CC4)no3)(CC1)CC2)c1cccc(-c2nc(C3CC3)no2)c1)C12CC(F)(C1)C2
2. CCOc1ncc(-c2cccc(N(CC34CCC(c5noc(C(C)(C)C)n5)(CC3)CC4)C(=O)C34CC(F)(C3)C4)c2)cn1
3. CCOc1ncc(-c2cccc(N(CC34CCC(c5noc(C(F)F)n5)(CC3)CC4)C(=O)C34CC(F)(C3)C4)c2)cn1
4. O=C(C1CC(F)(F)C1)N(CC12CCC(c3nc(C4CC4)no3)(CC1)CC2)c1cccc(-c2nc(C3CC3)no2)c1

Found:
1. 0.00
2. 1.70
3. 0.30
4. 0.00

Dear colleague, could you please provide log10 of EC50 for the compounds listed below?
1. CC(C)(C)c1nc(C23CCC(CN(C(=O)C45CC(F)(C4)C5)c4cccc(-c5nc(C6CC6)no5)c4)(CC2)CC3)no1
2. CCOc1ncc(-c2cccc(N(CC34CCC(c5noc(C(C)(C)C)n5)(CC3)CC4)C(=O)[C@H]3C[C@](O)(C(F)(F)F)C3)c2)cn1
3. O=C(C1CCC(F)(F)CC1)N(CC12CCC(c3nc(C4CC4)no3)(CC1)CC2)c1cccc(-c2nc(C3CC3)no2)c1
4. CCOc1ncc(-c2cccc(N(CC34CCC(c5noc(C(C)(C)C)n5)(CC3)CC4)C(=O)[C@H]3C[C@@](C)(O)C3)c2)cn1
5. O=C(C1CCS(=O)(=O)CC1)N(CC12CCC(c3nc(C4CC4)no3)(CC1)CC2)c1cccc(-c2nc(C3CC3)no2)c1
6. CN1CCC(C(=O)N(CC23CCC(c4nc(C5CC5)no4)(CC2)CC3)c2cccc(-c3nc(C4CC4)no3)c2)CC1
7. CC(C)(C)c1noc(C23CCC(CN(C(=O)C45CC(F)(C4)C5)c4cccc(-c5nc(C6CC6)no5)c4)(CC2)CC3)n1
8. CCOc1ccc(-c2cccc(N(CC34CCC(c5noc(C(C)(C)C)n5)(CC3)CC4)C(=O)C34CC(F)(C3)C4)c2)cn1

Found:
1.70
1.70
0.90
0.18
0.60
1.70
1.70
1.70

For each listed entry, give its log10 of EC50.
1. O=C(C1CCCCC1)N(CC12CCC(c3nc(C4CC4)no3)(CC1)CC2)c1cccc(-c2nc(C3CC3)no2)c1
2. CC(C)(O)c1ccc(-c2cccc(N(CC34CCC(c5noc(C(C)(C)F)n5)(CC3)CC4)C(=O)[C@H]3C[C@@](C)(O)C3)c2)cc1

Found:
0.78
1.70

---

Exercise: state measured remaining at 10 min for each of the compounds provided.
- experimentalProtocol: Metabolic stability in human liver microsome assessed as parent compound remaining at 1 mg/mL measured after 10 mins
- Format: ADME
- appliedConditions: liver microsomes, read-out: Stability
One number for each entry, in %.

mol: COC(=O)/C=C/c1cccc(N(CC23CCC(c4ccc(N(C)C)cc4)(CC2)CC3)C(=O)C2CCCCC2)c1
endpoint: remaining at 10 min
readoutUnit: %
measuredValue: 90

mol: COC(=O)/C=C/c1cccc(N(CC23CCC(c4nc(C)no4)(CC2)CC3)C(=O)C2CCCCC2)c1
endpoint: remaining at 10 min
readoutUnit: %
measuredValue: 6

Lookup: Could you share which remaining at 10 min value was measured for "COC(=O)/C=C/c1cccc(N(CC23CCC(c4ccc(OC)cc4)(CC2)CC3)C(=O)C2CCCCC2)c1" ?
Found: 60

---

- studyTarget: Bile acid receptor (Homo sapiens, UniProt Q96RI1)
- Sequence (Q96RI1 whole entry): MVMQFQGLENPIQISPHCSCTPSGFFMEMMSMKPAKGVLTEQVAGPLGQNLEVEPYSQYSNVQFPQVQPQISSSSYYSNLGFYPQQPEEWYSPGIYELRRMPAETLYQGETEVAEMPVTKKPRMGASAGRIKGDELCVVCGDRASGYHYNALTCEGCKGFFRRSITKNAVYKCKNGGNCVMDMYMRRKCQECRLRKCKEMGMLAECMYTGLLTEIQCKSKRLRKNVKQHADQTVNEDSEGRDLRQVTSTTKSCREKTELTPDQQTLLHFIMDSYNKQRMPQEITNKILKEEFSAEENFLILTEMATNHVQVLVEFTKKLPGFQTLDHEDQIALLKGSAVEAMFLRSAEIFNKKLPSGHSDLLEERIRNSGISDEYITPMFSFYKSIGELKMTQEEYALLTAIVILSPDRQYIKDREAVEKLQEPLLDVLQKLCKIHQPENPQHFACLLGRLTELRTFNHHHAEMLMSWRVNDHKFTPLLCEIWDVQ
- experimentalProtocol: Agonist activity at Gal4-fused human FXR in HEK293 cells incubated for 15 min by luciferase reporter assay
- Assay type: cell-based
For each record, write down the corresponding EC50.
Numbers only, in nM.

Take a look at these entries with their results.
mol: COC(=O)/C=C/c1cccc(N(CC23CCC(c4ccc(N5CCOCC5)cc4)(CC2)CC3)C(=O)C2CCCCC2)c1
readoutUnit: nM
EC50: 118
--
mol: O=C(C1CCS(=O)(=O)CC1)N(CC12CCC(c3nc(C4CC4)no3)(CC1)CC2)c1cccc(-c2nc(C3CC3)no2)c1
readoutUnit: nM
EC50: 1090
--
mol: CC(C)(C)c1nc(C23CCC(CN(C(=O)C45CC(F)(C4)C5)c4cccc(-c5nc(C6CC6)no5)c4)(CC2)CC3)no1
readoutUnit: nM
EC50: 29

Give EC50 for each of the items listed below.
1. O=C(C1CCOCC1)N(CC12CCC(c3nc(C4CC4)no3)(CC1)CC2)c1cccc(-c2nc(C3CC3)no2)c1
2. CC(C)(O)c1ccc(-c2cccc(N(CC34CCC(c5noc(C(C)(C)F)n5)(CC3)CC4)C(=O)[C@H]3C[C@@](C)(O)C3)c2)cc1
3. CN1CCC(C(=O)N(CC23CCC(c4nc(C5CC5)no4)(CC2)CC3)c2cccc(-c3nc(C4CC4)no3)c2)CC1
4. CC(C)(C)c1noc(C23CCC(CN(C(=O)C45CC(F)(C4)C5)c4cccc(-c5nc(C6CC6)no5)c4)(CC2)CC3)n1

Found:
1. 114
2. 25
3. 1640
4. 70

---

- studyTarget: Cytochrome P450 2C9 (Homo sapiens, UniProt P11712)
- Sequence (P11712 whole entry): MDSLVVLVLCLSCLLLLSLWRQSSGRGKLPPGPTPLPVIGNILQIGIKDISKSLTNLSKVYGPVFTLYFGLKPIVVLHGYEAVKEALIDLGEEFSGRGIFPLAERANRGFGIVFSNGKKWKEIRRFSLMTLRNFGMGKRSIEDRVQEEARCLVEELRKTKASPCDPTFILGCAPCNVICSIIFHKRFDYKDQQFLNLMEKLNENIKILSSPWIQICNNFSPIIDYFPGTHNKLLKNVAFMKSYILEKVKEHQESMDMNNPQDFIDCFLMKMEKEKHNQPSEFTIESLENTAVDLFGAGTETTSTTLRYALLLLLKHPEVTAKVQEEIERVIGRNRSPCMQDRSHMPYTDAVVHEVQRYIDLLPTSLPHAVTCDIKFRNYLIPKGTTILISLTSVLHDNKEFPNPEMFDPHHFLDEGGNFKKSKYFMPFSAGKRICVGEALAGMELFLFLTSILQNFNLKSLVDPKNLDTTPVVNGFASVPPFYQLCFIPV
- experimentalProtocol: Inhibition of recombinant CYP2C9 (unknown origin) using fluorogenic substrate preincubated for 15 min followed by NADPH addition measured after 2 hrs by fluorescence method
- Assay type: ADME
endpoint: pIC50
Give bare numbers, as −log10 of the molar value.

Answered cases to consult:
mol: O=C(C1CCS(=O)(=O)CC1)N(CC12CCC(c3nc(C4CC4)no3)(CC1)CC2)c1cccc(-c2nc(C3CC3)no2)c1
pIC50: 5.10

mol: O=C(C1CCC(F)(F)CC1)N(CC12CCC(c3nc(C4CC4)no3)(CC1)CC2)c1cccc(-c2nc(C3CC3)no2)c1
pIC50: 4.70

mol: CC(C)(O)c1ccc(-c2cccc(N(CC34CCC(c5noc(C(C)(C)F)n5)(CC3)CC4)C(=O)[C@H]3C[C@](O)(C(F)(F)F)C3)c2)cc1
pIC50: 5.30

mol: O=C(N(CC12CCC(c3nc(C4CC4)no3)(CC1)CC2)c1cccc(-c2nc(C3CC3)no2)c1)C12CC(F)(C1)C2
pIC50: 5.70

Record pIC50 for all entries; do not skip any.
1. O=C(C1CC(F)(F)C1)N(CC12CCC(c3nc(C4CC4)no3)(CC1)CC2)c1cccc(-c2nc(C3CC3)no2)c1
2. CC(C)(O)c1ccc(-c2cccc(N(CC34CCC(c5noc(C(C)(C)F)n5)(CC3)CC4)C(=O)[C@H]3C[C@@](C)(O)C3)c2)cc1
3. CN1CCC(C(=O)N(CC23CCC(c4nc(C5CC5)no4)(CC2)CC3)c2cccc(-c3nc(C4CC4)no3)c2)CC1
4. CCOc1ccc(-c2cccc(N(CC34CCC(c5noc(C(C)(C)C)n5)(CC3)CC4)C(=O)C34CC(F)(C3)C4)c2)cn1
5. CCOc1ncc(-c2cccc(N(CC34CCC(c5noc(C(F)F)n5)(CC3)CC4)C(=O)C34CC(F)(C3)C4)c2)cn1
6. CCOc1ncc(-c2cccc(N(CC34CCC(c5noc(C(C)(C)C)n5)(CC3)CC4)C(=O)C34CC(F)(C3)C4)c2)cn1
7. CC(C)(C)c1nc(C23CCC(CN(C(=O)C45CC(F)(C4)C5)c4cccc(-c5nc(C6CC6)no5)c4)(CC2)CC3)no1
8. CCOc1ncc(-c2cccc(N(CC34CCC(c5noc(C(C)(C)C)n5)(CC3)CC4)C(=O)[C@H]3C[C@](O)(C(F)(F)F)C3)c2)cn1

Found:
[6.00, 5.30, 4.70, 5.70, 5.70, 6.00, 5.52, 6.00]

Provide each entry's pIC50 from the list below.
1. CC(C)(C)c1noc(C23CCC(CN(C(=O)C45CC(F)(C4)C5)c4cccc(-c5nc(C6CC6)no5)c4)(CC2)CC3)n1
2. O=C(C1CCOCC1)N(CC12CCC(c3nc(C4CC4)no3)(CC1)CC2)c1cccc(-c2nc(C3CC3)no2)c1
3. CCOc1ncc(-c2cccc(N(CC34CCC(c5noc(C(C)(C)C)n5)(CC3)CC4)C(=O)[C@H]3C[C@@](C)(O)C3)c2)cn1
4. O=C(C1CCCCC1)N(CC12CCC(c3nc(C4CC4)no3)(CC1)CC2)c1cccc(-c2nc(C3CC3)no2)c1

Found:
[4.70, 6.00, 6.00, 4.70]
